- Assay text: Cytotoxicity on host cells, mean over the host cell lines
- Recorded conditions: human, bovine, hamster, monkey
// values below are reported CC50
Observable: CC50 (µM)

INSERT INTO assay_data (smiles_notation, numeric_result) VALUES
  ('Fc1ccc(/N=N/c2ccc(NC[C@@H]3CCCN4CCCC[C@H]34)c3c2CCCC3)c(F)c1', 21.5),
  ('CN(C)CCCN(/N=N/c1cc(F)ccc1F)c1ccccc1', 17.5);
